Where these numbers come from: ChEMBL document CHEMBL1131576

Here the recorded IC50 is given for each entry.
biological target: Phosphodiesterase 4 (Homo sapiens, UniProt P27815+Q08499+Q07343+Q08493); experiment: Inhibitory activity on human eosinophil phosphodiesterase 4.; format: protein assay

Compound: CCc1nn(-c2ccc(F)cc2)c2c1CCN(c1ccc(C)cc1)C2=O
Target under test: Phosphodiesterase 4 (Homo sapiens, UniProt P27815+Q08499+Q07343+Q08493)
Unit spec: nM
IC50: 2240
--
Compound: CCc1nn(C2CCC2)c2c1CCN(c1cccc(OC)c1)C2=O
Target under test: Phosphodiesterase 4 (Homo sapiens, UniProt P27815+Q08499+Q07343+Q08493)
Unit spec: nM
IC50: 150
--
Compound: CCc1nn(C2CCCC2)c2c1CCN(c1cccc(Cl)c1)C2=O
Target under test: Phosphodiesterase 4 (Homo sapiens, UniProt P27815+Q08499+Q07343+Q08493)
Unit spec: nM
IC50: 39
--
Compound: CCc1nn(C2CCCC2)c2c1CCN(Cc1ccccc1)C2=O
Target under test: Phosphodiesterase 4 (Homo sapiens, UniProt P27815+Q08499+Q07343+Q08493)
Unit spec: nM
IC50: 420
--
Compound: COc1ccc(N2CCc3c(C)nn(-c4ccc(F)cc4)c3C2=O)cc1
Target under test: Phosphodiesterase 4 (Homo sapiens, UniProt P27815+Q08499+Q07343+Q08493)
Unit spec: nM
IC50: 15700
--
Compound: CCc1nn(C2CCS(=O)(=O)C2)c2c1CCN(c1cccc(OC)c1)C2=O (configuration not stated)
Target under test: Phosphodiesterase 4 (Homo sapiens, UniProt P27815+Q08499+Q07343+Q08493)
Unit spec: nM
IC50: 460
--
Compound: COc1ccc([C@H](Cc2ccncc2)c2ccccc2)cc1OC1CCCC1
Target under test: Phosphodiesterase 4 (Homo sapiens, UniProt P27815+Q08499+Q07343+Q08493)
Unit spec: nM
IC50: 670
--
Compound: CCc1nn(-c2ccc(F)cc2)c2c1CCN(c1ccccc1C)C2=O
Target under test: Phosphodiesterase 4 (Homo sapiens, UniProt P27815+Q08499+Q07343+Q08493)
Unit spec: nM
IC50: 890
--
Compound: CCc1nn(-c2ccc(F)cc2)c2c1CCN(c1ccc(OC)cc1)C2=O
Target under test: Phosphodiesterase 4 (Homo sapiens, UniProt P27815+Q08499+Q07343+Q08493)
Unit spec: nM
IC50: 6040
--
Compound: CCc1nn(C2CCCC2)c2c1CCN(c1cccs1)C2=O
Target under test: Phosphodiesterase 4 (Homo sapiens, UniProt P27815+Q08499+Q07343+Q08493)
Unit spec: nM
IC50: 63
--
Compound: CCCCc1nn(-c2ccc(F)cc2)c2c1CCN(c1ccccc1)C2=O
Target under test: Phosphodiesterase 4 (Homo sapiens, UniProt P27815+Q08499+Q07343+Q08493)
Unit spec: nM
IC50: 84700
--
Compound: CCc1nn(-c2ccc(F)cc2)c2c1CCN(c1ccccc1)C2=O
Target under test: Phosphodiesterase 4 (Homo sapiens, UniProt P27815+Q08499+Q07343+Q08493)
Unit spec: nM
IC50: 1640
